- Tested on: SK-LMS-1
- TEST: standardised AUC of viability dose-response curve (72 h) (fraction (0-1)); higher = less growth inhibition (more resistant)
MEASURED_METRIC: standardised AUC

MOLECULE	TESTED_SYSTEM	VALUE_OBSERVED
Cc1cccc(-c2[nH]c(CNc3ccccc3F)nc2-c2ccc3ncnn3c2)n1 [VACTOSERTIB]	SK-LMS-1	0.995
N#Cc1ccnc(N2C(=O)CC[C@H]2C(=O)N(c2cncc(F)c2)[C@H](C(=O)NC2CC(F)(F)C2)c2ccccc2Cl)c1 [IVOSIDENIB]	SK-LMS-1	0.977
NC(=O)c1cnc2[nH]ccc2c1N[C@@H]1[C@@H]2CC3C[C@H]1C[C@@](O)(C3)C2 [PEFICITINIB]	SK-LMS-1	0.985
CO[C@H]1C[C@@H]2CC[C@@H](C)[C@@](O)(O2)C(=O)C(=O)N2CCCC[C@H]2C(=O)O[C@H]([C@H](C)C[C@@H]2CC[C@@H](O)[C@H](OC)C2)CC(=O)[C@H](C)/C=C(\C)[C@@H](O)[C@@H](OC)C(=O)[C@H](C)C[C@H](C)/C=C/C=C/C=C/1C [RAPAMYCIN]	SK-LMS-1	0.665
